target: ligand binding domain of human FXR (Homo sapiens (Human)); assay: FXR ligand binding assay (LanthaScreen FRET); conditions: FXR ligand binding assay, -log EC50;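 note: TR-FRET coactivator recruitment: ligand-induced binding of fluorescein-labelled SRC2-2 peptide to GST-tagged FXR LBD detected via Tb anti-GST antibody, serial compound dilutions, 3-parameter logistic fit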
Sequence (Q96RI1 262-486): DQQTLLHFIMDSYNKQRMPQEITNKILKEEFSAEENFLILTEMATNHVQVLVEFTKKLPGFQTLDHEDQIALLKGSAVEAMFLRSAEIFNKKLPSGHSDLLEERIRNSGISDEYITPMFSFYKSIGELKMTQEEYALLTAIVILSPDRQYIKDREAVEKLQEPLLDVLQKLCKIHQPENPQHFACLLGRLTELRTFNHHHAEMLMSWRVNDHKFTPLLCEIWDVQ
measuredProperty: FXR pEC50

Consider the following illustrative entries.
// query Give FXR pEC50 for O=C(OCCN(CCO)CCO)c1cc(F)c2nc(N3[C@@H]4CC[C@H]3C[C@@H](OC(=O)c3c(-c5c(Cl)cccc5Cl)noc3C3CC3)C4)sc2c1
// result >6.5

// query Give FXR pEC50 for O=C(O)c1cc(F)c2nc(N3[C@@H]4CC[C@H]3C[C@@H](OC(=O)c3c(C56CCC(CC5)CC6)noc3C3CC3)C4)sc2c1
// result >4.5

Further cases:
// query Give FXR pEC50 for COC12CCC(c3noc(C4CC4)c3C(=O)O[C@@H]3C[C@H]4CC[C@@H](C3)N4c3nc4c(OC(F)(F)F)cc(C(=O)O)cc4s3)(CC1)CC2
// result >4.4

---

molecular target: human Farnesoid X receptor ligand-binding domain/Gal4 DNA binding domain chimera (Homo sapiens (Human)); test: Cell-based FXR beta-lactamase reporter assay (FXR-UAS-bla HEK 293T cells); conditions: cellular FXR beta-lactamase reporter assay, -log EC50; read-out: FXR pEC50 (converted)
Catalogue of compounds with associated log10(EC50)
Recorded EC50 (log10, nM)

Consider the following illustrative entries.
// query Give log10(EC50) for CS(=O)(=O)NC(=O)c1cc(F)c2nc(N3[C@@H]4CC[C@H]3C[C@@H](OC(=O)c3c(-c5c(Cl)cccc5Cl)noc3C3CC3)C4)sc2c1
// result 1.20

// query Give log10(EC50) for O=C(O)c1ccc(N2[C@@H]3CC[C@H]2C[C@@H](OC(=O)c2c(-c4c(Cl)cccc4Cl)noc2C2CC2)C3)c(F)c1
// result 1.50

// query Give log10(EC50) for CS(=O)(=O)NC(=O)c1ccc(N2[C@@H]3CC[C@H]2C[C@@H](OC(=O)c2c(-c4c(Cl)cccc4Cl)noc2C2CC2)C3)c(Cl)c1
// result 1.20

Further cases:
// query Give log10(EC50) for O=C(O)c1cc(F)cc(S(=O)(=O)N2[C@@H]3CC[C@H]2C[C@@H](OC(=O)c2c(-c4c(Cl)cccc4Cl)noc2C2CC2)C3)c1
// result 2.80

// query Give log10(EC50) for O=C(O)c1cc(OC(F)(F)F)c2nc(N3[C@@H]4CC[C@H]3C[C@@H](OC(=O)c3c(C56CCC(CC5)CC6)noc3C3CC3)C4)sc2c1
// result 2.60

// query Give log10(EC50) for O=C(O)CNC(=O)c1cc(F)c2nc(N3[C@@H]4CC[C@H]3C[C@@H](OC(=O)c3c(-c5c(Cl)cccc5Cl)noc3C3CC3)C4)sc2c1
// result 2.90

// query Give log10(EC50) for O=C(O)c1ccc(N2[C@@H]3CC[C@H]2C[C@@H](OC(=O)c2c(-c4c(Cl)cccc4Cl)noc2C2CC2)C3)c(Cl)c1
// result 2.20

---

Target: human Farnesoid X receptor ligand-binding domain/Gal4 DNA binding domain chimera (Homo sapiens (Human))
Assay: Cell-based FXR beta-lactamase reporter assay (FXR-UAS-bla HEK 293T cells)
Details: HEK-293T; read-out: % Efficacy
Experimental: FXR activation was measured using a cell line and procedure obtained from Life Technologies (Cat #K1691). FXR-UAS-bla HEK 293T cells contain a human Farnesoid X receptor ligand-binding domain/Gal4 DNA binding domain chimera stably integrated into the CellSensor® UAS-bla HEK 293T cell line. […] Activation of FXR by bound ligands results in transcriptional activation of the beta-lactamase reporter gene, which is detected via assay of beta-lactamase activity. […]
Catalogue of molecules with associated Emax
All answers are understood in %, so give the number only.

Consider the following illustrative entries.
// query Give Emax for O=C(OCCN(CCO)CCO)c1cc(F)c2nc(N3[C@@H]4CC[C@H]3C[C@@H](OC(=O)c3c(-c5c(Cl)cccc5Cl)noc3C3CC3)C4)sc2c1
// result 112

// query Give Emax for COc1cc(N2[C@@H]3CC[C@H]2C[C@@H](OC(=O)c2c(-c4c(Cl)cccc4Cl)noc2C2CC2)C3)ccc1C(=O)O
// result 114

// query Give Emax for CN1c2cc(N3[C@@H]4CC[C@H]3C[C@@H](OC(=O)c3c(-c5c(Cl)cccc5Cl)noc3C3CC3)C4)ccc2C(=O)C1(F)F
// result 82

// query Give Emax for O=C(O[C@H]1C[C@H]2CC[C@@H](C1)N2c1ccc2c(C(=O)O)noc2c1)c1c(-c2c(Cl)cccc2Cl)noc1C1CC1
// result 124

Further cases:
// query Give Emax for O=C(O)c1ccc(N2[C@@H]3CC[C@H]2C[C@@H](OC(=O)c2c(-c4c(Cl)cccc4Cl)noc2C2CC2)C3)cc1C(F)(F)F
// result 93

// query Give Emax for O=C(NS(=O)(=O)CCCO)c1ccc(N2[C@@H]3CC[C@H]2C[C@@H](OC(=O)c2c(-c4c(Cl)cccc4Cl)noc2C2CC2)C3)cc1
// result 102

---

biological target: human Farnesoid X receptor ligand-binding domain/Gal4 DNA binding domain chimera (Homo sapiens (Human), UniProt Q96RI1); assay: Cell-based FXR beta-lactamase reporter assay (FXR-UAS-bla HEK 293T cells); details: cellular FXR beta-lactamase reporter assay, -log EC50; read-out: FXR pEC50 (converted)
Sequence (Q96RI1 262-486, change not shown): as the sequence (Q96RI1 262-486) above
Catalogue of compounds with associated EC50

Consider the following illustrative entries.
// query Give EC50 for O=C(O)c1ncc(N2[C@@H]3CC[C@H]2C[C@@H](OC(=O)c2c(-c4c(Cl)cccc4Cl)noc2C2CC2)C3)cn1
// result > 20000 nM

// query Give EC50 for Cc1cc(C(=O)O)cc2sc(N3[C@@H]4CC[C@H]3C[C@@H](OC(=O)c3c(-c5c(Cl)cccc5Cl)noc3C3CC3)C4)nc12
// result 2.51 nM

// query Give EC50 for O=C(O)c1cc(C(F)(F)F)c2nc(N3[C@@H]4CC[C@H]3C[C@@H](OC(=O)c3c(-c5c(Cl)cccc5Cl)noc3C3CC3)C4)sc2c1
// result 25.1 nM

Further cases:
// query Give EC50 for O=C(O)c1ccc(N2[C@@H]3CC[C@H]2C[C@@H](OC(=O)c2c(-c4c(Cl)cccc4Cl)noc2C2CC2)C3)cc1C(F)(F)F
// result 100 nM

---

target: human Farnesoid X receptor ligand-binding domain/Gal4 DNA binding domain chimera (Homo sapiens (Human), UniProt Q96RI1); assay: Cell-based FXR beta-lactamase reporter assay (FXR-UAS-bla HEK 293T cells); conditions: HEK-293T; read-out: % Efficacy
Catalogue of compounds with associated Emax
All answers are understood in %, so give the number only.

Consider the following illustrative entries.
// query Give Emax for O=C(O)c1cccc(S(=O)(=O)N2[C@@H]3CC[C@H]2C[C@@H](OC(=O)c2c(-c4c(Cl)cccc4Cl)noc2C2CC2)C3)c1
// result 96

// query Give Emax for O=C(O)c1ccc(N2[C@@H]3CC[C@H]2C[C@@H](OC(=O)c2c(-c4c(Cl)cccc4Cl)noc2C2CC2)C3)cc1
// result 107

// query Give Emax for O=C(O)c1ccc(N2[C@@H]3CC[C@H]2C[C@@H](OC(=O)c2c(-c4c(Cl)cccc4Cl)noc2C2CC2)C3)c(Cl)c1
// result 99

// query Give Emax for COc1cc(C(=O)O)cc2sc(N3[C@@H]4CC[C@H]3C[C@@H](OC(=O)c3c(-c5c(F)cccc5F)noc3C3CC3)C4)nc12
// result 112

// query Give Emax for O=C(O)c1ccc(N2[C@@H]3CC[C@H]2C[C@@H](OC(=O)c2c(-c4c(Cl)cccc4Cl)noc2C2CC2)C3)c(C(F)(F)F)c1
// result 112

// query Give Emax for N#Cc1ccc(N2[C@@H]3CC[C@H]2C[C@@H](OC(=O)c2c(-c4c(Cl)cccc4Cl)noc2C2CC2)C3)cc1O
// result 81

// query Give Emax for CS(=O)(=O)NC(=O)c1cc(F)c2nc(N3[C@@H]4CC[C@H]3C[C@@H](OC(=O)c3c(-c5c(Cl)cccc5Cl)noc3C3CC3)C4)sc2c1
// result 109

// query Give Emax for CS(=O)(=O)NC(=O)c1ccc(N2[C@@H]3CC[C@H]2C[C@@H](OC(=O)c2c(-c4c(Cl)cccc4Cl)noc2C2CC2)C3)c(F)c1
// result 105

// query Give Emax for O=C(O)c1cc(OC(F)(F)F)c2nc(N3[C@@H]4CC[C@H]3C[C@@H](OC(=O)c3c(-c5c(Cl)cccc5Cl)noc3C3CC3)C4)sc2c1
// result 119

Let us move to another entry and its Emax.
// query Give Emax for COc1cc2nc(N3[C@@H]4CC[C@H]3C[C@@H](OC(=O)c3c(-c5c(Cl)cccc5Cl)noc3C3CC3)C4)sc2cc1C(=O)O
// result 110
